Assign inhibition to each entry below.
# target: Serine/threonine-protein kinase Nek1 (Homo sapiens) (UniProt Q96PY6)
# Sequence (whole entry): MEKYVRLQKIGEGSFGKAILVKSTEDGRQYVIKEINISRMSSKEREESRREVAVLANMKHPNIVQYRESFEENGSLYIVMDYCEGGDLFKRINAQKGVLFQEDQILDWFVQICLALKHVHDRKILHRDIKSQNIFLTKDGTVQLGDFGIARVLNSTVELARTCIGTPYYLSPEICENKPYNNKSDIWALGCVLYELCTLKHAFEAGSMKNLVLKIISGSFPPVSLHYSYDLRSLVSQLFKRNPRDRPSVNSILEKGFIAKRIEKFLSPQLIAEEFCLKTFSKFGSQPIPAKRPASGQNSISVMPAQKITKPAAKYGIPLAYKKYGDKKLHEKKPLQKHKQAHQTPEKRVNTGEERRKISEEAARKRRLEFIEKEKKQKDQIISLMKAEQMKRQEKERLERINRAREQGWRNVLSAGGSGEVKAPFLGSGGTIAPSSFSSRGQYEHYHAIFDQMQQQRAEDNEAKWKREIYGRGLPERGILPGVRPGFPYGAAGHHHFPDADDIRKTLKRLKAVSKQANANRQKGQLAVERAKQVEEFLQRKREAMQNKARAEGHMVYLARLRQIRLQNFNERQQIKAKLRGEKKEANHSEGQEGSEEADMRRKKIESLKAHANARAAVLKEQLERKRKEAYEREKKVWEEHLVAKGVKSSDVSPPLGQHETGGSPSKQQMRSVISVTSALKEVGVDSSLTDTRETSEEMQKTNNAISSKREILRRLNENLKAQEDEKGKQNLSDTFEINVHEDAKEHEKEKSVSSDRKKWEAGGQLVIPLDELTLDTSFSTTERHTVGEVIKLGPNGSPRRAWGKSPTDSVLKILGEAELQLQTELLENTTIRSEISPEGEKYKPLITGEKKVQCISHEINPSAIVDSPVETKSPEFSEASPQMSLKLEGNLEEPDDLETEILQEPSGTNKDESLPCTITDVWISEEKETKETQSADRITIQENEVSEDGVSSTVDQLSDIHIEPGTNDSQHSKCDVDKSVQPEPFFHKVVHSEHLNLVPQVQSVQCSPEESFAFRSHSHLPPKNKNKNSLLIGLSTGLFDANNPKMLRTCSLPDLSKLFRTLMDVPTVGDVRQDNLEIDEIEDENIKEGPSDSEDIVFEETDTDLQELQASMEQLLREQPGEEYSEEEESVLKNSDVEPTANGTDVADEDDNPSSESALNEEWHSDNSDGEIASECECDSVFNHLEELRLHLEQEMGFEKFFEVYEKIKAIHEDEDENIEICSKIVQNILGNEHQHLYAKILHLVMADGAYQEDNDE
# settings: at 1 µM
# Description: GSK_PKIS: NEK1 mean inhibition at 1 uM [Nanosyn]
Answers are plain numbers, in %.

Sample records with inhibition:
Name the reported inhibition value associated with the compound "Cc1c2ccc(N(C)c3ccnc(Nc4cccc(S(N)(=O)=O)c4)n3)cc2nn1C" 4.82

And "COc1ccc(Nc2ncc(-c3ccccc3)o2)cc1OC" ? 5.19

Another: "O=C(O[C@H]1CN[C@H](C#Cc2cc3ncnc(Nc4ccc5c(ccn5Cc5cc(F)ccc5F)c4)c3s2)C1)N1CCOCC1" 1.91

Consider next the compound "CCS(=O)(=O)c1ccc(OC)c(Nc2ncc(-c3cccc(C(C)=O)c3)o2)c1" in the same way. 4.9

One more compound: "c1ccc(-c2n[nH]cc2-c2ccnc(-c3ccc(OCCn4ccnc4)cc3)c2)nc1" 2.46

// for each compound in input: emit inhibition
1. COc1ccc2ncn(-c3cc(O[C@H](C)c4ccccc4C(F)(F)F)c(C(N)=O)s3)c2c1
2. COc1cc(Nc2ncc(-c3ccccc3)o2)cc(OC)c1
3. CCS(=O)(=O)c1ccc(OC)c(Nc2ncc(-c3cccc(F)c3)o2)c1
4. O=C(Nc1n[nH]c2nnc(-c3cccnc3)cc12)C1CC1
5. O=C(O[C@H]1CN[C@H](C#Cc2cc3ncnc(Nc4ccc(OCc5cccc(F)c5)c(Cl)c4)c3s2)C1)N1CCOCC1

1. 43
2. 4.11
3. 5.27
4. 1.72
5. 4.01

Give one value of inhibition per listed compound.
1. CN(c1ccc(NC(=O)NCCN2CCOCC2)cc1)c1ccnc(Nc2ccc(CS(C)(=O)=O)cc2)n1
2. Cc1cc(O)cc(C)c1/C=C/c1cncc(C(=O)OC(C)(C)C)c1
3. CC1(C)CC(n2cnc(-c3ccc(F)cc3)c2-c2ccnc(N)n2)CC(C)(C)N1
4. O=C1Nc2ccccc2/C1=C1\CCc2cc(O)ccc21
5. NS(=O)(=O)c1ccc(N/N=C2\C(=O)Nc3ccc(C(=O)NCc4ccncc4)cc32)cc1
6. CC1=C(C(=O)Nc2ccc3[nH]ncc3c2)C(c2ccc(F)cc2)N=C(c2ccc(C(F)(F)F)nc2)N1 (stereo not given)
7. NC(=O)c1ccc2c(-c3ccnc(NCCCO)n3)c(-c3ccc(F)cc3)nn2c1
8. COc1cccc(Nc2nccc(-c3cnn4ncccc34)n2)c1

1. 4.64
2. 4.15
3. 0.83
4. 4.37
5. 4.03
6. 1.45
7. 3.93
8. 18.3

Give inhibition for each listed item.
1. COc1cc2c(cc1Nc1nc(Nc3cccc(F)c3C(N)=O)c3cc[nH]c3n1)N(C(=O)CN1CCN(C(C)C)CC1)CC2
2. CC(C)c1ccc(-c2cc(-c3c[nH]nc3-c3ccccn3)ccn2)cc1

1. 6.64
2. 0.95
